target: Proteasome chymotrypsin-like activity (S26 protein from RPMI8226 cells) (Homo sapiens, UniProt P28074)
Sequence (P28074 60-263 limits assumed): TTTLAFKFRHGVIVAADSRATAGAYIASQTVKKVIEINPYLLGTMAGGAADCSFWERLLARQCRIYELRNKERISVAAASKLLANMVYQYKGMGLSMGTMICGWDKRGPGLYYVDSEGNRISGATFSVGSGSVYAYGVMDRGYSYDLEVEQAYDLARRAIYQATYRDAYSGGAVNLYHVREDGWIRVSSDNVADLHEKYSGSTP
value type: IC50

Reference set, count: 3
COc1cccc(C(=O)NCC2=NOC(Cc3ccccc3)(C(=O)N[C@@H](CC(C)C)B(O)O)C2)n1 (some centres unmarked) ... < 10 nM
CC(C)C[C@H](NC(=O)C1(Cc2ccccc2)CC(CNC(=O)c2cccc(Cl)n2)=NO1)B(O)O (some centres unmarked) ... < 10 nM
Cc1cccc(CC2(C(=O)N[C@@H](CC(C)C)B(O)O)CC(CNC(=O)c3cc(C)nn3C3CCCC3)=NO2)c1 (some centres unmarked) ... < 10 nM

Ask: Query: IC50; subject: CC(C)C[C@H](NC(=O)C1CC(c2ccc(OC(F)(F)F)cc2)=NO1)B(O)O (some centres unmarked)
Result: < 500 nM

Ask: Query: IC50; subject: COc1cccc(CC2(C(=O)N[C@@H](CC(C)C)B(O)O)CC(CNC(=O)c3c(Cl)c(C)nn3C(C)C)=NO2)c1 (some centres unmarked)
Result: < 10 nM

Ask: Query: IC50; subject: CC(C)C[C@H](NC(=O)C1(Cc2cc(F)cc(F)c2)CC(CNC(=O)c2nccc3ccccc23)=NO1)B(O)O (some centres unmarked)
Result: < 10 nM

Ask: Query: IC50; subject: CC(C)C[C@H](NC(=O)C1(Cc2cccc(F)c2)CC(CNC(=O)c2nccc3ccccc23)=NO1)B(O)O (some centres unmarked)
Result: < 10 nM
